These data points were gathered from the supplement of paper PMC9262897.

Each item that follows carries a reported growth.
Test system: E. coli TESEC Mtb Alr
Assay: growth (OD600 after 10 h); higher = more growth (less inhibition)
Conditions: arabinose 1000000 nM; compound 0.1 mM; raw OD600 reference: median of DMSO wells 0.193, cell-free background 0.041
Counter-ions that a name gives are not always drawn.
Note: the reply should be a number with no unit written.

{"compound": "COc1ccc2[nH]c([S+]([O-])Cc3ncc(C)c(OC)c3C)nc2n1 (stereo not drawn)", "growth": 0.0829}
{"compound": "CC(C)(C)NC[C@H](O)COc1ccccc1C1CCCC1 [Penbutolol sulfate]", "growth": 0.128}
{"compound": "CC(C)NCC(O)c1ccc2ccccc2c1 (stereo not drawn) [Pronethalol hydrochloride]", "growth": 0.187}
{"compound": "CC/C(=C(/CC)c1ccc(O)cc1)c1ccc(O)cc1", "growth": 0.0394}
{"compound": "CC[C@H](C)C(=O)O[C@H]1CCC=C2C=C[C@H](C)[C@H](CC[C@@H]3C[C@@H](O)CC(=O)O3)[C@H]21", "growth": 0.0515}
{"compound": "CC(=O)Nc1c(I)c(NC(C)=O)c(I)c(C(=O)O)c1I [Diatrizoic acid dihydrate]", "growth": 0.213}
{"compound": "C#C[C@]1(O)CC[C@H]2[C@@H]3CCc4cc(OC)ccc4[C@H]3CC[C@@]21C", "growth": 0.163}

Now take the following compound into account.
INPUT: Reported growth for CN1Cc2c(N)cccc2C(c2ccccc2)C1 (stereo not drawn) [Nomifensine maleate] : what is it?
OUTPUT: 0.167
